- TESTED SYSTEM: human blood clotting factor VIIa (Homo sapiens)
- Construct: 5 nM human blood clotting factor VIIa
- Sequence (P08709 213-466 limits assumed): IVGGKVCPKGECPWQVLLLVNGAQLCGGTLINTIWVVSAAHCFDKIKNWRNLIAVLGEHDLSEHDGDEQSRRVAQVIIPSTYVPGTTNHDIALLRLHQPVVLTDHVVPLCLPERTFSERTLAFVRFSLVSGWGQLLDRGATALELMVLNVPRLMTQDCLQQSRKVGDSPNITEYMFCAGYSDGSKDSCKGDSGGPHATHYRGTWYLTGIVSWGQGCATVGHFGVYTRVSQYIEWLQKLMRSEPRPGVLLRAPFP
- Sequence (P08709 61-212 limits assumed): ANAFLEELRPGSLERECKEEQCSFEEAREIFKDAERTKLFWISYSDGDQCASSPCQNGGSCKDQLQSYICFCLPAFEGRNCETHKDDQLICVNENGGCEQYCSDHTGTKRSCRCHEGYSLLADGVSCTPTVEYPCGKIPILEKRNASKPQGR
- Sequence (P13726 33-295 partner): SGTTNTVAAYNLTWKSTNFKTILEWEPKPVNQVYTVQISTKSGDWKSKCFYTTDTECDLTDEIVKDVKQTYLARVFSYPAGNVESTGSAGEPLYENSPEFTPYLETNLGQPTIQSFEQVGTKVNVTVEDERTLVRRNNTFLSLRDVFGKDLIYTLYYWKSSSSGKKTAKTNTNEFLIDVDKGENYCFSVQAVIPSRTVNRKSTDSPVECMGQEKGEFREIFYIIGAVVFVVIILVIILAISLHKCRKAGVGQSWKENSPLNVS
- ASSAY EXPLANATION: Inhibiting activity against blood clotting factor VIIa (Spectrozyme VII chromogenic assay)
- CONDITION SUMMARY: 10 nM human tissue factor, 5 nM human blood clotting factor VIIa, Spectrozyme VII substrate, 40 minutes at room temperature, absorbance 405 nm
pIC50: −log10 of the molar value. Structures can show the parent of a compound that is named as a salt.
ENDPOINT LABEL: pIC50

Examples with answers:
>>> reported_result("COc1ccc(S(=O)(=O)Nc2ccc(Oc3ccc4cc(C(=N)N)ccc4c3)c(-c3ccccc3C(=O)O)c2)cc1 [Example 1-26, trifluoroacetate]")
6.68
>>> reported_result("CC(=O)N1CCc2ccc(S(=O)(=O)Nc3ccc(Oc4ccc5cc(C(=N)N)ccc5c4)c(-c4ccccc4C(=O)O)c3)cc2C1 [Example 1-39]")
7.52

a = N=C(N)c1ccc2cc(Oc3ccc(NS(=O)(=O)c4ccc5ccccc5c4)cc3C(=O)O)ccc2c1 [Example 1-4, trifluoroacetate]
b = Cc1ccc(S(=O)(=O)Nc2ccc(Oc3ccc4cc(C(=N)N)ccc4c3)c(-c3ccc(C(=O)NCC(C)C)cc3C(=O)O)c2)cc1Cl [Example 8-3, trifluoroacetate]
c = Cc1ccc(S(=O)(=O)Nc2ccc(Oc3ccc4cc(C(=N)N)ccc4c3)c(-c3ccccc3C(=O)O)c2)cc1Cl [Example 1-40, trifluoroacetate]
Q: // ranking: key=pIC50, reverse=True Field: ranking. Enter the labels in the order requested.
Ans: b, c, a
